Attribution: patent US10941120B1

test system: vancomycin-resistant enterococci VRE 18-80; experiment: MIC by microbroth dilution, VRE 18-80; assay type: cell-based
I'd be grateful if you could share measured Minimum bacteriostatic concentration for these entries.

Problem: So what's the measured Minimum bacteriostatic concentration for this one? Nc1cc(=O)[nH]c(=O)[nH]1
Solution: >128 µg/mL

Problem: State the recorded Minimum bacteriostatic concentration for this entry: O=C(Nc1cc(=O)[nH]c(=O)[nH]1)c1cc(O)c2c(c1)C(=O)c1cccc(O)c1C2=O
Solution: >128 µg/mL

Problem: // query Minimum bacteriostatic concentration value for entry O=C(O)c1cc(O)c2c(c1)C(=O)c1cccc(O)c1C2=O
Solution: >128 µg/mL
